system: T1, CRH (CT Biotin) (human and mouse, C-terminal K-Biotin)
T1 construct: also called Peptide 4 (CRH-Biotin)
T1 peptide: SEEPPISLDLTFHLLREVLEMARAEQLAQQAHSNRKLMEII
testSummary: ELISA, biotin peptide on streptavidin plate
Readings of EC50 for the listed binders
Supply the numeric figure in nM, leaving out any unit text.

In the examples that follow, each entry is paired with its recorded EC50.
Lab note: PR004290 (antibody, human IgG1, kappa, V domains shown, Series 1; human IgG1 wildtype Fc; also called Hybridoma Clone 28b3) VH: EVQLVESGGVLVQPGGSLRLSCAASGFTFSSYWMTWVRQAPGKGLEWVANIKQDGSEKYYVDSVKGRFTISRDNAKNSLFLQMNSLRAEDTAVYYCARTLIFDYWGQGTLVTVSS VL: DIVMTQSPLSLPVTPGEPASISCRSSQSLLHSTGYNSLEWYLQKPGQSPQLLIYLGSNRASGVPDRFSGSGSGTDFTLKISRVEAEDVGIYYCMQTLQTPITFGQGTRLEIKR gave EC50 of 0.065

The binder listed as PR302341 (antibody, human IgG1, kappa, V domains shown, Series 10; mouse variable domains with human IgG1 wildtype Fc) VH: EVQLQQSGPELVKPGASVKMSCKASGYTFTDYFMKWVKQSHGESLEWIGVINPNNGDIFYNQKFKGKATLTVDKSSSTAFMQLNSLTSEDSAVYSCARGTDRALFAYWGQGTLVAVSA VL: DVLMTQTPLSLPVSLGDQASISCRSGQSIVHSDGNTYLEWYLQRPGQSPRLLIYKVSNRFSGVPDRFSGSGSGTDFTLKISRVGAEDLGIYYCFQGSHIPWTFGGGTKLEVKR has a reported EC50 of 0.017

Pending binder:
Lab note: measured EC50 of PR302341-48 (antibody, human IgG1, kappa, V domains shown, Humanized, PTM-removed variant of PR302341) VH: QVQLVQSGAEVKKPGASVKVSCKASGYTFTDYFMKWVRQAPGQGLEWMGVINPNQGDIFYNQKFKGRVTMTVDKSTSTAYMELSSLRSEDTAVYYCARGTDRALFAYWGQGTLVTVSS VL: DVVMTQTPLSSPVTLGQPASISCRSGQSIVHSDANTYLEWYQQRPGQPPRLLIYKVSNRFSGVPDRFSGSGAGTDFTLKISRVEAEDLGVYYCFQGSHIPWTFGGGTKVEIKR was 0.028
